Data provenance is the supplement of paper PMC10567573.

B1: SMG5 (parent)
chain: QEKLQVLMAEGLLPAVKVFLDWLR

variants of: B1; experiment: protein stability index of a GFP-peptide fusion (GPS, HEK-293T) (PSI 1-6); higher = more stable; conditions: c terminus: a fixed tail appended;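 note: lentivirally expressed fusions sorted by FACS into six bins by GFP to DsRed ratio, PSI derived from sequencing read proportions per bin multiplied by bin number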
Assignment: determine reported protein stability index for the given variants.
Reply: number alone, nothing else.

## Task Given `P14F` , state its recorded protein stability index.
## Result 1.97

## Task Given `K3C` , state its recorded protein stability index.
## Result 2.03

## Task Given `K3H` , state its recorded protein stability index.
## Result 1.96

## Task Given `R24D` , state its recorded protein stability index.
## Result 2

## Task Given `L20I` , state its recorded protein stability index.
## Result 2.02

## Task Given `L20Q` , state its recorded protein stability index.
## Result 2.02
